The origin of these recorded values is patent US11458138B2.

log10(IC50) values for the molecules below.
# system.tested: LATS1 (Homo sapiens (Human))
# Sequence (O95835 whole entry, looked up): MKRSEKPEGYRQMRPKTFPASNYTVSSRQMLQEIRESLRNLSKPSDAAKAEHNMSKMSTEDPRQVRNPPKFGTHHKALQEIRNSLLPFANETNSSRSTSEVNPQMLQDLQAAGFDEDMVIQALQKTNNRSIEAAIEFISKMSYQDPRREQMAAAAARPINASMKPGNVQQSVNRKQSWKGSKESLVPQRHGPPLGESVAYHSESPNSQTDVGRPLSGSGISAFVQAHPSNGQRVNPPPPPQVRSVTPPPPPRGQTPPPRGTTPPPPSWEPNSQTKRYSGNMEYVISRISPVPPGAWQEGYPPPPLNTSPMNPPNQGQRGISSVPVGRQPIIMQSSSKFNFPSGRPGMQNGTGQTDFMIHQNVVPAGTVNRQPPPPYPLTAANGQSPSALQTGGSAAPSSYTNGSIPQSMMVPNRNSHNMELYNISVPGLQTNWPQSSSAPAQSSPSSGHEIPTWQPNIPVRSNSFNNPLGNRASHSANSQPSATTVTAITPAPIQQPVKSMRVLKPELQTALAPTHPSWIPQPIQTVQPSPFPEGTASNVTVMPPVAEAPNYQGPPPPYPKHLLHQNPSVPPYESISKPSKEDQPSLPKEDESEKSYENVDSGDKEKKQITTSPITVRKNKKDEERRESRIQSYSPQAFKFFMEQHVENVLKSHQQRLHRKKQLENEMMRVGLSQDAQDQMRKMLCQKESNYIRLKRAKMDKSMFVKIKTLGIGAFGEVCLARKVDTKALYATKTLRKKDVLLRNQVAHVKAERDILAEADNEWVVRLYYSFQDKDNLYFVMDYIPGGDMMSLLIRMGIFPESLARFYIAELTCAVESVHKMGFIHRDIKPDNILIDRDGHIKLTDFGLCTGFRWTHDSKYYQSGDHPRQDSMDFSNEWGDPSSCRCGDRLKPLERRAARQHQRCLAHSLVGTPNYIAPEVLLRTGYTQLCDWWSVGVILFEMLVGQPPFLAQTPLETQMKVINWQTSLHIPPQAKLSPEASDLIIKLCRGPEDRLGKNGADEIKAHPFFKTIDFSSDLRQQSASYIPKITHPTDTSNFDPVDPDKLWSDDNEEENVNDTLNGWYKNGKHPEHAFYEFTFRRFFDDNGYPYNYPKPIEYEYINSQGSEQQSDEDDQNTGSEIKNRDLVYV
# Sequence (Q7L9L4 whole entry partner, looked up): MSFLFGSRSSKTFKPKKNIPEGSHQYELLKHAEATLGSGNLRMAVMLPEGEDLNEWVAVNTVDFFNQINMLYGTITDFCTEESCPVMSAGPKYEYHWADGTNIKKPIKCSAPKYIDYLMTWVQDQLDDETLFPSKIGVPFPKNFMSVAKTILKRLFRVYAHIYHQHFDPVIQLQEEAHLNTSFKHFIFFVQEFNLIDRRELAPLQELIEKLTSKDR
# experiment: LATS1 biochemical assay (Table 1A, Compound Examples 1-290; method in the earlier part)
For clarity, the numbers are log10 values of IC50 expressed in nM.

Some molecules with known log10(IC50) results, for comparison:
CS(=O)(=O)CCNc1nc(-c2ccncc2)nc2cnccc12 : 2.85
CN(C)C1(CNc2nc(-c3ccncc3)nc3cnccc23)CCOCC1 : 2.39
CC(C)(CNCC(=O)O)Nc1nc(-c2ccncc2)nc2cnccc12 : 1.59

Prompt line: Given the entry CC(C)OCC(C)(C)Nc1cc(-c2ccncc2)nc2cnccc12 , report its measured log10(IC50).
Response line: 0.90

Prompt line: Note, next up: Cn1nccc1-c1nc(NC2(C)CCC2)c2ccncc2n1
Response line: 0.95

Prompt line: What about this molecule? CCN(CC)c1cc(-c2ccncc2)nc2cnccc12
Response line: 0.95

Prompt line: Follow-up item: C[C@H](N(C)c1nc(-c2ccncc2F)nc2cnccc12)C(F)(F)F
Response line: 0.30

Prompt line: What about CC1(C)CC(O)CCN1c1cc(-c2ccncc2)nc2cnccc12 (stereo not shown) ?
Response line: 0.48

Prompt line: Do the same for CC(Nc1nc(-c2ccncc2)nc2cnccc12)C(F)(F)F (stereo not shown) please
Response line: 0.00

Prompt line: Now the same for CC(C)(Nc1nc(-c2ccncc2)nc2cnccc12)C1CC1
Response line: 0.00
